# TEST DESCRIPTION: inhibition of 3D7 malaria parasite growth – strain 3D7 (AID 2306);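 further: 0% = DMSO wells and 100% = chloroquine plus artemisinin control wells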
# CONDITION NOTES: P. falciparum 3D7 erythrocytic growth, LDH absorbance, 72 h; at 2 µM; stronger effect = higher value
RECORDED METRIC: growth inhibition (%)
Answer with a number only, understood to be in %.

Cc1noc(C)c1-c1ccc2c(Nc3ccccc3C(C)(C)C)c(C(=O)NCc3ccc(OC(C)C)cc3)cnc2c1 ... 100
O=C(/C=C/c1ccc(Cl)c(Cl)c1)NC1CCN(Cc2ccc(O)cc2)CC1 ... 103
CC1(C)C(=O)NC2=C1C(=O)C(=O)c1ccccc12 ... 93
COc1ccccc1C1CCN(C2CCC(NC(=O)/C=C/c3cc(F)cc(F)c3)CC2)CC1 (stereo not given) ... 91
CCN(CC)c1cc(C)c2cc(NC(=O)c3cc(=O)c4ccccc4o3)ccc2n1 ... 97
O=C1C(c2ccccc2)=C(Nc2ccc(Cl)cc2)c2ccccc21 ... 91
O=C(/C=C/c1ccc(Cl)c(Cl)c1)NCCCCCN1CCC(NC(=O)Nc2cccc(C(F)(F)F)c2)CC1 ... 102
COc1ccc(-c2cccc(NC(=O)c3cccc(Cl)c3)c2)cc1CN1CCNCC1 ... 101

Sample CC(CN(C)C)C(=O)Nc1ccc(-c2cccc(-c3nc4ccccc4[nH]3)c2)cc1 (stereo not given) — what was its growth inhibition?
99

Fill blank: measured growth inhibition of the molecule O=C(Nc1cccc(CN2CCCN(Cc3ccc(O)cc3)CC2)c1)c1cccc(Cl)c1 is ____.
96

---

Measured inhibition values are reported for all entries that follow.
# Tested on: Hepatitis C virus NS3 helicase
# TEST DESCRIPTION: HCV NS3 helicase inhibitors, primary screen, biochemical, fluorescence polarization, LOPAC1280 library (AID 687035)
# CONDITION NOTES: Purified HCV NS3 helicase, Cy5-dT15 ssDNA binding fluorescence polarization; stronger effect = higher value; concentration not given here
// note: answer is a bare numeric in %

Below, each entry is followed by its recorded inhibition result.
C1COC(NC(C2CC2)C2CC2)=N1 ... 0
CC(C)(Oc1ccc(C2CC2(Cl)Cl)cc1)C(=O)O (stereo not given) ... -1
CN(C)CCC(c1ccc(Br)cc1)c1ccccn1 (stereo not given) ... 0
CN[C@H](CC(C)C)C(=O)N[C@H]1C(=O)N[C@@H](CC(N)=O)C(=O)N[C@H]2C(=O)N[C@H]3C(=O)N[C@H](C(=O)N[C@H](C(=O)O)c4cc(O)cc(O)c4-c4cc3ccc4O)[C@H](O)c3ccc(c(Cl)c3)Oc3cc2cc(c3O[C@@H]2O[C@H](CO)[C@@H](O)[C@H](O)[C@H]2O[C@H]2C[C@](C)(N)[C@H](O)[C@H](C)O2)Oc2ccc(cc2Cl)[C@H]1O ... -5
NCCCCN ... -3
CNCCCN1c2ccccc2CCc2ccccc21 ... -1

Query for Hepatitis C virus NS3 helicase: what inhibition does the record show for CN=C(N)NCCC[C@H](N)C(=O)O ?
0

Item: O=c1ccc2ccc(O)c(O)c2o1 Test system: Hepatitis C virus NS3 helicase Read-out: inhibition Value: ?
0

---

# TEST DESCRIPTION: growth inhibition of DIPG glioma cells, dose response, cell-based, SU-DIPG-XVII, MIPE5.0, CellTiter-Glo, qHTS (AID 1347060);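 on AC50: cells exposed to compound for 48 hours before viability readout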
# CONDITION NOTES: SU-DIPG-XVII viability, CellTiter-Glo ATP luminescence
Records with an inconclusive call do not appear. The source made the active and inactive calls. Cut-off not given; nearly all actives show AC50 up to about 26 µM.
RECORDED METRIC: AC50

Observe how each entry below is paired with its result.
CC[C@@]1(O)C[C@H](O[C@H]2C[C@H](N(C)C)[C@H](O[C@H]3C[C@H](O)[C@H](O[C@H]4CCC(=O)[C@H](C)O4)[C@H](C)O3)[C@H](C)O2)c2c(cc3c(c2O)C(=O)c2c(O)cccc2C3=O)[C@H]1C(=O)OC ... 14.8 µM (active)
O=c1c(O)c(-c2ccc(O)cc2O)oc2cc(O)cc(O)c12 ... inactive
CCN(CC)CCNC(=O)c1c(C)[nH]c(/C=C2\C(=O)Nc3ccc(F)cc32)c1C ... 7.42 µM (active)
CC[C@]1(O)C[C@H]2CN(CCc3c([nH]c4ccccc34)[C@@](C(=O)OC)(c3cc4c(cc3OC)N(C=O)[C@H]3[C@@](O)(C(=O)OC)[C@H](OC(C)=O)[C@]5(CC)C=CCN6CC[C@]43[C@@H]65)C2)C1 ... 0.0295 µM (active)
CC/C(=C(\c1ccccc1)c1ccc(OCCN(C)C)cc1)c1ccccc1 ... 17.1 µM (active)

Item COc1ccc(-c2cc(=O)c3c(O)cc(O[C@@H]4O[C@H](CO[C@@H]5O[C@@H](C)[C@H](O)[C@@H](O)[C@H]5O)[C@@H](O)[C@H](O)[C@H]4O)cc3o2)cc1O has what recorded AC50?
inactive

For the compound shown here, CC(C)C[C@H](NC(=O)[C@H](CCc1ccccc1)NC(=O)CN1CCOCC1)C(=O)N[C@@H](Cc1ccccc1)C(=O)N[C@@H](CC(C)C)C(=O)[C@@]1(C)CO1 , give the reported AC50.
0.0148 µM (active)

---

cell count values for the compounds below.
# TEST DESCRIPTION: sensitizers of A549 cells to miR-34 induction, primary screen, imaging, A549 dox-inducible miR-34, nuclei and caspase counts (AID 1347080)
# CONDITION NOTES: A549 miR-34 inducible, Hoechst nuclei count, 48 h; measured here: total cells with miR-34 induction; stronger effect = lower value
Please give the numeric answer without any surrounding text.

// below: answered compounds
CN(CCCCCCCCCCN(C)C(=O)Oc1cccc([N+](C)(C)C)c1)C(=O)Oc1cccc([N+](C)(C)C)c1 ... 8660
CC(C)(C)C(=O)Oc1ccc(S(=O)(=O)Nc2ccccc2C(=O)NCC(=O)O)cc1 ... 10600

Entry O=c1[nH]c2cc(C(F)(F)F)c(N3CCOCC3)cc2n(CP(=O)(O)O)c1=O : reported cell count = ?
9280

Find the recorded cell count belonging to CCCCCCC[N+](CC)(CC)CCCCc1ccc(Cl)cc1 and report it.
6720

# lookup: cell count of O=C(N/N=C/c1ccc([N+](=O)[O-])o1)c1ccc(O)cc1
3090

Query: cell count; subject: Cc1cccc(C)c1NC(=O)c1ccccc1C(=O)O
8770

Tell me the measured cell count of CN(C)CCCSc1ccccc1NC(=O)C=Cc1ccccc1 , please.
8880

Query: cell count; subject: CN(C)c1nc(N)c(C(=O)N=C(N)N)nc1Cl
10400

Value lookup for cell count; key = CC1(c2ccccc2)OC(C(=O)O)=CC1=O (stereo unspecified)
9820

Request the reported cell count associated with O=C(O)c1cc2cc(F)ccc2[nH]1
9030

Entry under review: NC1(C(=O)O)CC1 . Reported cell count?
9670

Which cell count reading was recorded for the compound CCN(CC)CCNC(C(=O)OCCC(C)C)c1ccccc1 (stereo unspecified) ?
8430

Please look up its cell count: C=CCn1c(=O)n([C@@H]2O[C@H](CO)[C@@H](O)[C@H]2O)c2nc(N)[nH]c(=O)c21
9010

Can you share its cell count? I mean this compound: CN(C(=O)c1c(O)c2ccccc2n(C)c1=O)c1ccccc1
8780

Returns the measured cell count for the input compound. Input: O=S(=O)(O)c1cc(I)c(O)c2ncccc12
5970

Need cell count, item CON=C(C(=O)NC1C(=O)N2C(C(=O)O)=C(COC(C)=O)CSC12)c1csc(N)n1 (stereo unspecified)
11400

---

# TEST DESCRIPTION: CRL2098 osteosarcoma cell growth inhibition, synergistic combos for chromothripsis tumors, BGB or cisplatin IC20 combos (AID 1671454);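 further: cells exposed for 96 h before readout; 0% = vehicle DMSO and 100% = killing by high DMSO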
# CONDITION NOTES: CRL2098 osteosarcoma cells, drug combinations, measured here: combination with cisplatin at IC20, at 0.5 µM, stronger effect = higher value
// label = Criterion met if inhibition is not less than -60%, otherwise Criterion not met

Look over these answered cases.
Nc1ccc2cc3ccc(N)cc3nc2c1 ... Criterion met
O=c1[nH]c(=O)n([C@H]2C[C@H](O)[C@@H](CO)O2)cc1Br ... Criterion met
CCOC(=O)Nc1ccc(NCc2ccc(F)cc2)nc1N ... Criterion met
CCn1nc(C(=O)O)c(=O)c2cc3c(cc21)OCO3 ... Criterion met
CNC1CCCN(c2c(F)cc3c(=O)c(C(=O)O)cn(C4CC4)c3c2OC)C1 (stereo not drawn) ... Criterion not met

hey, is inhibition for this one >= -60%? COC1C(OC(N)=O)C(O)C(Oc2ccc3c(O)c(NC(=O)c4ccc(O)c(CC=C(C)C)c4)c(=O)oc3c2C)OC1(C)C (stereo not drawn)
Criterion met

Check the entry CC1(C(=O)O)CCC2(C)CCC3(C)C(=CC(=O)C4C5(C)CCC(OC(=O)CCC(=O)O)C(C)(C)C5CCC43C)C2C1 (stereo not drawn) : does inhibition equal or exceed -60%?
Criterion not met

Does the reported inhibition for Nc1ncn([C@H]2C[C@H](O)[C@@H](CO)O2)c(=O)n1 fall at or above the -60% mark?
Criterion not met
